target: Histone-lysine N-methyltransferase EHMT2 (Homo sapiens); assay: Inhibition of G9a (unknown origin) at 5 uM preincubated for 15 mins followed by substrate and [3H-SAM] addition and measured after 60 mins by microbeta analysis relative to control; conditions: time 75.0 min
inhibition values by entry
Express it in %; write the number only.

Example entries begin here.
[[record]]
record_smiles = "Cc1ccc(-c2cc(NCC3CCN(Cc4ccccc4)CC3)c3cnn(CCCN4CCCC4)c3c2)o1"
measurement_units = "%"
reading = 14

[[record]]
record_smiles = "CN1CCC(Nc2nc(N3CCOCC3)nc3c2ccn3CCCN2CCCC2)CC1"
measurement_units = "%"
reading = 7.2

[[record]]
record_smiles = "CN1CCC(Nc2nc(N3CCCC3)nc3c2ccn3CCCN2CCCC2)CC1"
measurement_units = "%"
reading = 1.3

[[record]]
record_smiles = "CN1CCC(Nc2nc(-c3ccc(F)nc3)nc3c2ccn3CCCN2CCOCC2)CC1"
measurement_units = "%"
reading = 11

[[record]]
record_smiles = "CN1CCC(Nc2nc(N3CCCN(C)CC3)nc3c2ccn3CCCN2CCCC2)CC1"
measurement_units = "%"
reading = 2.9


Task item: Param item = "CC(C)N1CCC(Nc2nc(-c3ccccc3)nc3c2ncn3CCCN2CCCC2)CC1" ; retrieve measured inhibition.
Reply: 6

Task item: Same for "CC(C)N1CCC(Nc2nc(N3CCCCC3)nc3c2ccn3CCCN2CCCC2)CC1"
Reply: 6.5

Task item: Moving on to "CN1CCC(Nc2nc(-c3ccncc3)nc3c2ccn3CCCN2CCCC2)CC1"
Reply: 1.3

Task item: Moving on to the next molecule: "CN1CCN(c2cc(NCC3CCN(C(=O)OC(C)(C)C)CC3)c3cnn(CCCN4CCOCC4)c3c2)CC1"
Reply: 10

Task item: Try this molecule next: "Cc1ccc(-c2cc(NCC3CCN(C(=O)OC(C)(C)C)CC3)c3cnn(CCCN4CCCC4)c3c2)o1"
Reply: 12

###

target: DNA (cytosine-5)-methyltransferase 3A (Homo sapiens, UniProt Q9Y6K1)
Sequence (Q9Y6K1 whole entry, looked up): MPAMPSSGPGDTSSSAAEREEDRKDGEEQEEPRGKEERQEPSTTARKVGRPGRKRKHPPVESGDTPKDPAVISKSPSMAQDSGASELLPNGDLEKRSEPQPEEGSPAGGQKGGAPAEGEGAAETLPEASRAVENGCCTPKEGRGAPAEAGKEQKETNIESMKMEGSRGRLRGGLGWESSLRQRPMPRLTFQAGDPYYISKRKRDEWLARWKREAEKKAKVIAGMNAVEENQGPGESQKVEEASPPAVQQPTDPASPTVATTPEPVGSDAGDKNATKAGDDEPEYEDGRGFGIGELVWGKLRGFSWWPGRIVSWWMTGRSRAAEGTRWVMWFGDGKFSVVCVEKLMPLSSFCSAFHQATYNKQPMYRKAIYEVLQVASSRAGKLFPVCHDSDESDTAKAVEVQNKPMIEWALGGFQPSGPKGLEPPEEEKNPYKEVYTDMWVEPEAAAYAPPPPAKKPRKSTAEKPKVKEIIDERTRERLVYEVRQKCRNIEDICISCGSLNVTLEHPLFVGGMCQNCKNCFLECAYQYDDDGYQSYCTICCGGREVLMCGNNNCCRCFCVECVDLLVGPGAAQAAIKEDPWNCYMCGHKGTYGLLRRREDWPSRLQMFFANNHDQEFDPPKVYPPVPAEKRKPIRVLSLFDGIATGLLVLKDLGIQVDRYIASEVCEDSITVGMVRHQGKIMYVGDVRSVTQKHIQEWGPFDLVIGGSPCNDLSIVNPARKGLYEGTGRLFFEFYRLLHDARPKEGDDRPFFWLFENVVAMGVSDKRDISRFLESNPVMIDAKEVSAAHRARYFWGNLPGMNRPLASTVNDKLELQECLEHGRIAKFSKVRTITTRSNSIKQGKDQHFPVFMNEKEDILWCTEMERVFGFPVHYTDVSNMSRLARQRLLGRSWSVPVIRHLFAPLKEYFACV
ASSAY_ENDPOINT: pIC50
// pIC50 here means minus log10 of the molar concentration (mol/L)

// known answers, use as guide
[[record]]
record_smiles = "Cc1ccc(-c2nc(NC3CCN(C)CC3)c3ccn(CCCN4CCCC4)c3n2)o1"
study_target = "DNA (cytosine-5)-methyltransferase 3A (Homo sapiens, UniProt Q9Y6K1)"
reading = 5.10

[[record]]
record_smiles = "CN1CCC(Nc2nc(-c3ccc(C#N)c(F)c3)nc3c2ccn3CCCN2CCCC2)CC1"
study_target = "DNA (cytosine-5)-methyltransferase 3A (Homo sapiens, UniProt Q9Y6K1)"
reading = 4.96

[[record]]
record_smiles = "CN1CCC(Nc2nc(-c3ccccc3)nc3c2ccn3CCCN2CCCC2)CC1"
study_target = "DNA (cytosine-5)-methyltransferase 3A (Homo sapiens, UniProt Q9Y6K1)"
reading = 5.13

[[record]]
record_smiles = "CN1CCC(Nc2nc(-c3cn[nH]c3)nc3c2ccn3CCCN2CCCC2)CC1"
study_target = "DNA (cytosine-5)-methyltransferase 3A (Homo sapiens, UniProt Q9Y6K1)"
reading = 5.15


Task item: What does the data say about its pIC50? Entry: "CN1CCC(Nc2nc(-c3ccnc(F)c3)nc3c2ccn3CCCN2CCCC2)CC1"
Reply: 4.84

Task item: Also need "CN1CCC(Nc2nc(N3CCCN(C)CC3)nc3c2ccn3CCCN2CCCC2)CC1" , thanks.
Reply: 5.21

Task item: Repeat for the following compound: "COc1ccc(-c2nc(NC3CCN(C)CC3)c3ccn(CCCN4CCCC4)c3n2)cn1"
Reply: 4.74

###

test: Apparent clearance during terminal phase in Sprague-Dawley rat at 10 mg/kg, po measured upto 24 hrs by LC/MS/MS analysis; assay type: ADME, organism-based; conditions: in vivo, read-out: CLz/F (converted)
ASSAY_ENDPOINT: CL/F (mL/min/kg)
Express your answer in mL/min/kg, writing the number without its unit.

Example entries and their recorded answers appear below.
[[record]]
record_smiles = "CN1CCC(Nc2nc(-c3ccnc(F)c3)nc3c2ccn3CCCN2CCCC2)CC1"
reading = 322

[[record]]
record_smiles = "CN1CCC(Nc2nc(-c3ccc(C#N)c(F)c3)nc3c2ccn3CCCN2CCCC2)CC1"
reading = 843


Next item in the queue.
Task item: Bench note: what CL/F did "CN1CCC(Nc2nc(-c3ccc(F)nc3)nc3c2ccn3CCCN2CCCC2)CC1" show?
Reply: 1050

###

Reported pIC50 by item:
tested on: TMD8; assay: Antiproliferative activity against human TMD8 cells assessed as inhibition of cell viability measured after 72 hrs by MTT assay; type: functional, cell-based; details: TMD8, 72 h
Would you please state pIC50, meaning minus log10 of the concentration in mol/L, as a bare number?

Previously resolved entries follow.
[[record]]
compound = "Nc1ncn([C@@H]2O[C@H](CO)[C@@H](O)[C@H]2O)c(=O)n1"
assay_endpoint = "pIC50"
reading = 5.55

[[record]]
compound = "CN1CCC(Nc2nc(-c3ccnc(F)c3)nc3c2ccn3CCCN2CCCC2)CC1"
assay_endpoint = "pIC50"
reading = 6.30

[[record]]
compound = "COc1cc2c(NC3CCN(C)CC3)cc(-c3ccc(C)o3)nc2cc1OCCCN1CCCC1"
assay_endpoint = "pIC50"
reading = 6.72


Now turn to the next compound.
Task item: Form: Entry = CCc1c(C#N)c(SC(C(N)=O)c2ccccc2)nc(N2CCC(N)CC2)c1C#N (centres undefined) | System = TMD8 | pIC50 = ____
Reply: 4.67

###

experiment: Cmax in Sprague-Dawley rat at 10 mg/kg, po measured upto 24 hrs by LC/MS/MS analysis; format: ADME, organism-based; details: in vivo
ASSAY_ENDPOINT: Cmax (ng/mL)
Write down the numeric answer in ng/mL and omit the unit.

[[record]]
record_smiles = "CN1CCC(Nc2nc(-c3ccc(F)nc3)nc3c2ccn3CCCN2CCCC2)CC1"
reading = 17.3


Task item: Given the entry "CN1CCC(Nc2nc(-c3ccnc(F)c3)nc3c2ccn3CCCN2CCCC2)CC1" , report its measured Cmax.
Reply: 16.7

Task item: Repeat for the following compound: "CN1CCC(Nc2nc(-c3ccc(C#N)c(F)c3)nc3c2ccn3CCCN2CCCC2)CC1"
Reply: 29.3

###

biological target: DNA (cytosine-5)-methyltransferase 1 (Homo sapiens); assay: Inhibition of DNMT1 (unknown origin) at 1 uM preincubated for 15 mins followed by substrate and [3H-SAM] addition and measured after 60 mins by microbeta analysis relative to control; settings: time 75.0 min
Quick reference: inhibition of the listed items.
Number only, in %; omit the unit.

Examples from the recorded data:
[[record]]
record_smiles = "CN1CCN(c2cc(NCC3CCN(C(=O)NC(C)(C)C)CC3)c3cnn(CCCN4CCOCC4)c3c2)CC1"
reading = 0.91

[[record]]
record_smiles = "CN1CCN(c2cc(NCC3CCN(C(=O)C(C)(C)C)CC3)c3cnn(CCCN4CCOCC4)c3c2)CC1"
reading = 41

[[record]]
record_smiles = "Cc1cc(Nc2ccc(NC(=O)c3ccc(Nc4ccnc5ccccc45)cc3)cc2)nc(N)n1"
reading = 77


Task item: // lookup inhibition for "CN1CCN(c2cc(NCC3CCN(C(=O)C4CCC4)CC3)c3cnn(CCCN4CCOCC4)c3c2)CC1"
Reply: 9.3

###

molecular target: DNA (cytosine-5)-methyltransferase 1 (Homo sapiens, UniProt P26358); assay: Inhibition of DNMT1 (unknown origin) at 5 uM preincubated for 15 mins followed by substrate and [3H-SAM] addition and measured after 60 mins by microbeta analysis relative to control; conditions: time 75.0 min
Sequence (P26358 whole entry): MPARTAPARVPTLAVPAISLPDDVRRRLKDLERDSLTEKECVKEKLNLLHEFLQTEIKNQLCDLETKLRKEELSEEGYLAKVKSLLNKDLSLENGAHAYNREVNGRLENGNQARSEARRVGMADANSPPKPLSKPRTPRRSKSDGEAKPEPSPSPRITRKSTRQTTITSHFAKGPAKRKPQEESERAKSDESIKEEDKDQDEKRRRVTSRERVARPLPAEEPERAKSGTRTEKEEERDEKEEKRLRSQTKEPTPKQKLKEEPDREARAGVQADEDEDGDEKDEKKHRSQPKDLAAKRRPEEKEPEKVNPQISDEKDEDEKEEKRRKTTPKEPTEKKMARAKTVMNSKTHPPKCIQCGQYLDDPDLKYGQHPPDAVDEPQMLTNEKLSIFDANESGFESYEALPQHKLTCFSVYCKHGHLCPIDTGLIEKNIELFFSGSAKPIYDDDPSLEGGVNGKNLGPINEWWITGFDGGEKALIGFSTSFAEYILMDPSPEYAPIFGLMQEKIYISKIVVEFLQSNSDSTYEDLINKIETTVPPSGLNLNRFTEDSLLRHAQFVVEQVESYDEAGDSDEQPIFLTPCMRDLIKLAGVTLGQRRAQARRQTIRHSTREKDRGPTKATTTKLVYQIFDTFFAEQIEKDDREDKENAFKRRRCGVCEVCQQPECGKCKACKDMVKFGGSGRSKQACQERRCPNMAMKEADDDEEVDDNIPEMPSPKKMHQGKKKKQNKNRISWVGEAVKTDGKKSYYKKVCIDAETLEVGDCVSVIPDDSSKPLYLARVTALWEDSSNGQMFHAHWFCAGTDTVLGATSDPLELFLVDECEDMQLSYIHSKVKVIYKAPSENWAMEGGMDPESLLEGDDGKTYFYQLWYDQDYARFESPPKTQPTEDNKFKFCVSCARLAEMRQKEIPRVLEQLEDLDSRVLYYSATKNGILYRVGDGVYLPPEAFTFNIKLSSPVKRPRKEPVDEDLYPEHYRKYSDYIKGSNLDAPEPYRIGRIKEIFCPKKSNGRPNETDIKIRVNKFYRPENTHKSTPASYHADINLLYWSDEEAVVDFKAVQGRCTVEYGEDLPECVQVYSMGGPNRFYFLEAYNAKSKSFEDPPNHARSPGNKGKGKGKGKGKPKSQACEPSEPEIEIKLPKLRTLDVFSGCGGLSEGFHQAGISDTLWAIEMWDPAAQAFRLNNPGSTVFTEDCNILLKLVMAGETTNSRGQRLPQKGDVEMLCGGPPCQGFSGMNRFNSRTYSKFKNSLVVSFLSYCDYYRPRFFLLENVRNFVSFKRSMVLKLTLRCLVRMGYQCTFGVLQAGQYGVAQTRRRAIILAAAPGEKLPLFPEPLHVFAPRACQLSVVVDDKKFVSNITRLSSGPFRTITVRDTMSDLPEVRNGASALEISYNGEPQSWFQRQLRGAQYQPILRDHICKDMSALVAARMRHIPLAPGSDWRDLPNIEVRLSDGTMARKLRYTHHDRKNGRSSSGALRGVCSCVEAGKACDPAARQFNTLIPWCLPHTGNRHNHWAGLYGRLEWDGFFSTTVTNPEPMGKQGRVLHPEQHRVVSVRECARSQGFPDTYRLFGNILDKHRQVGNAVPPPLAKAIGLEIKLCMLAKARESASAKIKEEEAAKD
ASSAY_ENDPOINT: inhibition (%)
Give just the numeric value; % need not be written.

[[record]]
record_smiles = "CN1CCN(c2cc(NCC3CCN(C(=O)OC(C)(C)C)CC3)c3cnn(CCCN4CCOCC4)c3c2)CC1"
reading = 98

[[record]]
record_smiles = "CN1CCC(Nc2nc(N3CCOCC3)nc3c2ccn3CCCN2CCCC2)CC1"
reading = 25

[[record]]
record_smiles = "Cc1cc(Nc2ccc(NC(=O)c3ccc(Nc4ccnc5ccccc45)cc3)cc2)nc(N)n1"
reading = 3.4

[[record]]
record_smiles = "CN1CCC(Nc2nc(-c3ccc(C(F)(F)F)cc3)nc3c2ccn3CCCN2CCCC2)CC1"
reading = 42

[[record]]
record_smiles = "CN1CCC(Nc2nc(-c3ccccc3)nc3c2ccn3CCCN2CCCC2)CC1"
reading = 45


Task item: Item "CC(C)N1CCC(Nc2nc(N3CCCCC3)nc3c2ncn3CCCN2CCCC2)CC1" with DNA (cytosine-5)-methyltransferase 1 (Homo sapiens, UniProt P26358) - inhibition?
Reply: 12

Task item: Same question, "COc1ccc(-c2nc(NC3CCN(C)CC3)c3ccn(CCCN4CCCC4)c3n2)cn1" this time
Reply: 49

Task item: Query "Cc1ccc(-c2cc(NCC3CCN(C(=O)OC(C)(C)C)CC3)c3cnn(CCCN4CCCC4)c3c2)o1" next
Reply: 1.6

Task item: And for "CC(C)N1CCC(Nc2nc(N3CCOCC3)nc3c2ccn3CCCN2CCCC2)CC1" ?
Reply: 6.7
